// reported composite z-score for each item listed
Test system: Neuregulin-1 EGF-like domain
protocol_description: binders of neuregulin-1 EGF-like domain, primary screen, biochemical, small-molecule microarray, 635 nm fluorescence (AID 1081);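 note: binding of the protein to compounds printed on small-molecule microarray slides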
details: small-molecule microarray binding, higher = more signal
// return a plain number; no unit text

# lookup: composite z-score of `C=CCNC(=O)[C@H]1[C@@H]2C(=O)O[C@@H](c3ccccc3)[C@@H](c3ccccc3)N2[C@@H](c2ccc(OCCO)cc2)[C@]12C(=O)N(C(=O)OCCOC)c1ccc(C#CCC(C(=O)OC)C(=O)OC)cc12`
1.19

Would you mind doing `CC(C)C[C@@H]1NC(=O)[C@@H]2C[C@H](C(=O)NCCCCCNC(=O)CS)[C@H](c3ccc(O)cc3)N2C1=O` as well?
1.17

Would you mind doing `COCCOC(=O)N1C(=O)[C@@]2(c3cc(C#CC4=CCCCC4)ccc31)[C@H](c1ccc(O)cc1)N1[C@H](c3ccccc3)[C@H](c3ccccc3)OC(=O)[C@H]1[C@@H]2C(=O)N1CCc2cc(OC)c(OC)cc2C1` as well?
1.11

Others:
# lookup: composite z-score of `CCOC(=O)C[C@H]1[C@H](OC(=O)Cc2ccc3c(c2)OCO3)[C@@H](NC(=O)CC(C)C)c2cc(OCCCO)ccc2N1C(=O)c1ccc2ccccc2n1`
0.518

Would you mind doing CN1C(=O)C2C=CC(C(O)c3ccc(I)cc3)N(N(c3ccccc3)c3ccccc3)C2C1=O (centres undefined) as well?
-0.0493

====

// reported composite z-score for each item listed
target: Carbonic anhydrase 2 (Homo sapiens)
protocol_description: CAII small-molecule binders, profiling panel, biochemical, small-molecule microarray, Alexa647-labelled CAII (AID 1122)
details: CAII-A647 binding fluorescence, higher = more signal
// return a plain number; no unit text

Completed entries (count: 3):
# lookup: composite z-score of `COc1ccc([Si](C)(C)[C@H]2[C@H](CC(=O)N3CCC[C@H]3CO)O[C@@]3(C(=O)N(C)c4ccccc43)[C@@H]2C)cc1`
0.487

Would you mind doing COc1ccc(NN2C(C(O)c3ccc(F)cc3)C=CC3C(=O)N(C4CCCCC4)C(=O)C32)cc1 (configuration not stated) as well?
0.649

Would you mind doing `C=C[C@H](C)[C@@H](OC(=O)Nc1ccc(SC)cc1)c1ccc(OCCO)cc1` as well?
0.397

Then this compound:
# lookup: composite z-score of CC1CC/C=C\[C@H]2OC34C=CCN(C(C)C)C(=O)[C@H]3N(C(C)CO)C(=O)[C@@H]4C2C(=O)O1 (some centres not stated)
0.418

====

// reported z-score for each item listed
protocol_description: basal MM1S mitochondrial membrane potential changes, profiling panel, cell-based, JC-1 fluorescence, 24 h, 100 nL compound (AID 1170); note: test concentration not given here
details: higher = more signal
// return a plain number; no unit text

# lookup: z-score of `COc1cc(Cc2cc3c(c(-c4ccccc4)n2)[Si](C(C)C)(C(C)C)OC3)cc(OC)c1OC`
0.382

Others:
# lookup: z-score of `COc1ccc([Si](C)(C)[C@H]2[C@H](CC(=O)N3CCC[C@H]3CO)O[C@@]3(C(=O)N(C)c4c(Br)cc(C)cc43)[C@@H]2C)cc1`
-0.468

Would you mind doing `COC(=O)C(CC#Cc1ccc2c(c1)[C@]1(C(=O)N2)[C@H](C(=O)N2CCN(c3ncccn3)CC2)[C@H]2C(=O)O[C@H](c3ccccc3)[C@H](c3ccccc3)N2[C@@H]1c1ccc(O)cc1)C(=O)OC` as well?
-0.205

Would you mind doing `Cc1ccc(S[C@]2(C(=O)NCc3ccccc3)CC(=O)N(Cc3ccccc3Cl)[C@@H]2c2ccc(CO)cc2)cc1` as well?
0.666

Would you mind doing `Cc1ccc(N2C(=O)c3ccccc3[C@@H](C(=O)NCCN3CCOCC3)[C@@H]2c2ccc(CO)cc2)nc1` as well?
0.235
